Data origin: BigSolDB 2.1

# measurement-conditions: in n-butanol, 293.15 K
observed-property: solubility (mole fraction)

*Q* Identify solubility (mole fraction) associated with the molecule CC(=O)Nc1ccc(C(=O)O)cc1
*A* 0.00599

====

# measurement-conditions: in isobutanol, 318.15 K
observed-property: solubility (mole fraction)

*Q* Identify solubility (mole fraction) associated with the compound CC(=O)Nc1ccc(C(=O)O)cc1
*A* 0.0103

====

# measurement-conditions: in methanol, 308.15 K
observed-property: solubility (mole fraction)
Keep the answer to the number alone.

*Q* Identify solubility (mole fraction) associated with the molecule CC(=O)Nc1ccc(C(=O)O)cc1
*A* 0.0103

====

# measurement-conditions: in acetic acid, 303.15 K
observed-property: solubility (mole fraction)
Keep the answer to the number alone.

*Q* Identify solubility (mole fraction) associated with the compound CC(=O)Nc1ccc(C(=O)O)cc1
*A* 0.00554
